# Subject Of Test: Stromelysin-1 (Homo sapiens, UniProt P08254)
# Sequence (P08254 whole entry): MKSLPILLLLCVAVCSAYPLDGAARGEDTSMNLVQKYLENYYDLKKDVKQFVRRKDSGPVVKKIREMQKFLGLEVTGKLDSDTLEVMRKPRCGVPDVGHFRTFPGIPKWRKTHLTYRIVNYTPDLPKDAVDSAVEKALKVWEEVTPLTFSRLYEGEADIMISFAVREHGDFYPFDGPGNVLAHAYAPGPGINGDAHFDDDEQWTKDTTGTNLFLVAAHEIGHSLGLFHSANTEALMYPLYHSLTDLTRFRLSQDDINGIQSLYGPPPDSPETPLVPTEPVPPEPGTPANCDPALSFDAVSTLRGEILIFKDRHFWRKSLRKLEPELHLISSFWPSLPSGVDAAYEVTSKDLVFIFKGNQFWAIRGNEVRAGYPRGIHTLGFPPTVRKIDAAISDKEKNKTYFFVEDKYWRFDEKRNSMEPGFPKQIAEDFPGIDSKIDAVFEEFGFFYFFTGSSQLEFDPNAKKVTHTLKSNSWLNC
# Experimental Details: Inhibition of MMP3 (unknown origin) using Pro-Leu-Gly-Leu-Dpa-Ala-Arg-NH2 as substrate after 3 mins by fluorimetric assay
# Details: read-out: IC50
Could you please mark True for values of IC50 below 20 µM and False for values at or above it?

Mol Smiles: O=C(O)CN1C(=O)/C(=C/c2cccc(Oc3ccccc3)c2)SC1=S
Class Assignment: True

Mol Smiles: O=C1NC(=S)S/C1=C\c1ccc(OCc2ccccc2)cc1
Class Assignment: False

Mol Smiles: O=C(O)CN1C(=O)/C(=C/c2ccc(Oc3ccccc3)cc2)SC1=S
Class Assignment: True

Mol Smiles: O=C1NC(=S)S/C1=C\c1ccc(Oc2ccccc2)cc1
Class Assignment: False

Mol Smiles: O=C(O)CN1C(=O)/C(=C/c2cccc(OCc3ccccc3)c2)SC1=S
Class Assignment: True

Mol Smiles: O=C(O)CN1C(=O)/C(=C/c2ccc(OCc3ccccc3)cc2)SC1=S
Class Assignment: False

Mol Smiles: O=C1NC(=S)S/C1=C\c1cccc(Oc2ccccc2)c1
Class Assignment: True
